- Experimental target: T1, cynomolgus monkey CD40 (cynomolgus monkey, UniProt P25942 21-193 (human entry), limits assumed)
- T1 chain: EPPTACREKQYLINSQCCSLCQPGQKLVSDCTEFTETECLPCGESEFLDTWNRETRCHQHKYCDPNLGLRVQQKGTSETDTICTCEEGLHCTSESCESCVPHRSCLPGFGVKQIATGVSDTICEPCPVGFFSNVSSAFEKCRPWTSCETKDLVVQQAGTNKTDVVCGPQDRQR
- Assay protocol: Octet
Result type: koff

For 29H10 (antibody, V domains shown, also called 4877-1) VH: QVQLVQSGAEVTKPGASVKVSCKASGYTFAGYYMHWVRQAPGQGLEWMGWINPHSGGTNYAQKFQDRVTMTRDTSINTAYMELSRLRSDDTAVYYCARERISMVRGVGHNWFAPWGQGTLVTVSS VL: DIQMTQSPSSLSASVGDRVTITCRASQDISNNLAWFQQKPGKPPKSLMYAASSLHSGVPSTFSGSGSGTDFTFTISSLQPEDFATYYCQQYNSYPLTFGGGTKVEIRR , what is its reported koff? 0.000244 s⁻¹

For 35F11 (antibody, IgG4, V domains shown, also called 4868-1) VH: QVQLVESGGGVVQPGRSLRLSCAASGFTLSSYGMHWVRQAPGKGLEWVAVIWYDGSNKYYADSVKGRVTISRDNSKNTLYLQMNSLRAEDTAVYYCTRDGRNYVYFDNWGQGTLVTVSS VL: QSALTQPRSVSGSPGQSVTISCTGTSSDVGGYIFVSWYQQHPGKAPKLMIYDVSKRPSGVPDRFSGSKSVNTASLTISGLQAEDETDYYCCSYAGNYTYVFGTGTKVTVLG , what is its reported koff? 0.000314 s⁻¹

For 37A6 (antibody, IgG4, V domains shown, also called 4865-1) VH: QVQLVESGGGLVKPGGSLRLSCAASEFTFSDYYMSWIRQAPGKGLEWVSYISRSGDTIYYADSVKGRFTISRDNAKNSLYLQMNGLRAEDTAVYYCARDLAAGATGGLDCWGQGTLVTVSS VL: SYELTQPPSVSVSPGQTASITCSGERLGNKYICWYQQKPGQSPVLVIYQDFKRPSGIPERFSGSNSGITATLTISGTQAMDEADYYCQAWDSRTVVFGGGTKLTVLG , what is its reported koff? 0.000387 s⁻¹
